Reference source: patent US12441726B2

target: BRM (Homo sapiens, UniProt P51531); assay: ATPase catalytic activity assay (ADP-Glo), BRM; details: 30 nM BRM, 400 μM ATP
Sequence (P51531 whole entry): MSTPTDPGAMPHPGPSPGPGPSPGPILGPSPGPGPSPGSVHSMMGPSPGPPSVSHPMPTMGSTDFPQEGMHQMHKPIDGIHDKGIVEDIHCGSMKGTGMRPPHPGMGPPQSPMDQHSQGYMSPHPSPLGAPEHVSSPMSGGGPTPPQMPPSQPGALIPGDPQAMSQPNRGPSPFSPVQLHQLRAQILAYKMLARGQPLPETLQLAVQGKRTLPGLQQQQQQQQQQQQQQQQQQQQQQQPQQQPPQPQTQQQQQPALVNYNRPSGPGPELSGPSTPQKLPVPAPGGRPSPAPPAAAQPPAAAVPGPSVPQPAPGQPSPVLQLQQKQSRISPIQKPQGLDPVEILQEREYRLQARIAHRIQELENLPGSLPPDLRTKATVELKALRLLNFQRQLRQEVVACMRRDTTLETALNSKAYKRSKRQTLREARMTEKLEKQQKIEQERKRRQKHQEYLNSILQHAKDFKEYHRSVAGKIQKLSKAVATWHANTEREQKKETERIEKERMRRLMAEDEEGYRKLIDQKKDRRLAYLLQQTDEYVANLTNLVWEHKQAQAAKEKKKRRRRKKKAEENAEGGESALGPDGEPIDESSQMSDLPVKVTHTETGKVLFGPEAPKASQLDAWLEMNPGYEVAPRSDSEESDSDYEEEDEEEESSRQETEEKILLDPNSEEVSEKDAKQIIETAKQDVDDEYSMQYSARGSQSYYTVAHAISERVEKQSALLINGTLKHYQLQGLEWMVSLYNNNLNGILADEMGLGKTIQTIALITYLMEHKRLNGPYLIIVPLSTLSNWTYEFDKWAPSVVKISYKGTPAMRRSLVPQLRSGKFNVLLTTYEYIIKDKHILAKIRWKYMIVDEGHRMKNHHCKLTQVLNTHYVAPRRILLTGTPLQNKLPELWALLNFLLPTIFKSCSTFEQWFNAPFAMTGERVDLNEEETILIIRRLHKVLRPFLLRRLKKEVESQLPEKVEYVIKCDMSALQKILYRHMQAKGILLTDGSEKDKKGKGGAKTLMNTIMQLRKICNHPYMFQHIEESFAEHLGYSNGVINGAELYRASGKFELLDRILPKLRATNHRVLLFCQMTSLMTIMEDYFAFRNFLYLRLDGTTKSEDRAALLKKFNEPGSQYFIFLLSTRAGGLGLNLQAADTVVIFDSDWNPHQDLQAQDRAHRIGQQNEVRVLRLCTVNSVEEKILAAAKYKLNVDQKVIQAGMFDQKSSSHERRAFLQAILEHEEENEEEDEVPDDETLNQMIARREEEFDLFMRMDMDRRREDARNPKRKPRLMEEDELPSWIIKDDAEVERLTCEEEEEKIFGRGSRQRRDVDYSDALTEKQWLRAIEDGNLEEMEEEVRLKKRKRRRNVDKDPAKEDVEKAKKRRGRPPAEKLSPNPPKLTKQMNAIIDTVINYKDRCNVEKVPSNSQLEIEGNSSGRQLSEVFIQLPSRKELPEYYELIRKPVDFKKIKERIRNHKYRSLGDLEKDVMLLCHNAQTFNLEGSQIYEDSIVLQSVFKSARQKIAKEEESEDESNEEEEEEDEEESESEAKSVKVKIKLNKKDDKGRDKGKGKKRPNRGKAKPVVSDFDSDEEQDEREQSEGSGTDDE
Each entry below carries its reported BRM Max % Inhibition.
Value expressed in %; do not type the unit.

Recorded BRM Max % Inhibition, per entry:
molecule | BRM Max % Inhibition / %
Cc1c(-c2ccc3cnc(CNC(=O)c4ccc5c(c4)[C@](C)(C#N)COC5)cc3n2)cnn1C1COC1 [Compound 187] | 88
COc1cccc([C@H]2C[C@H](c3ccnc(CNC(=O)c4ccc5c(c4)[C@](C)(C#N)COC5)c3)C2)c1 [Compound 74] | 98
C[C@@]1(C#N)COCc2ccc(C(=O)NCc3cc([C@H]4C[C@H](c5cccc(N6CCOCC6)n5)C4)ccn3)cc21 [Compound 79] | 96
C[C@@]1(C#N)COCc2ccc(C(=O)NCc3cc4cc(-c5ccnc(N6CCC6)c5F)ccc4cn3)cc21 [Compound 272] | 104
Cn1ccc2ccc(-c3ccc4cnc(CNC(=O)c5ccc6c(c5)[C@](C)(C#N)COC6)cc4n3)cc2c1=O [Compound 452] | 97
C[C@@]1(C#N)COCc2ccc(C(=O)NCc3cc4nc(-c5ccnc(N6CC7(COC7)C6)n5)ccc4cn3)cc21 [Compound 403] | 99

Request: Fill blank: measured BRM Max % Inhibition of the molecule C[C@@]1(C#N)COCc2ccc(C(=O)NCc3cc4nc(-c5cccc(C(F)F)c5)ccc4cn3)cc21 [Compound 98] is ____.
Result: 97

Request: Fill blank: measured BRM Max % Inhibition of the molecule COC[C@H](NC(=O)c1ccc2c(c1)[C@](C)(C#N)COC2)c1cc(/C=C/c2ccccc2)ccn1 [Compound 41] is ____.
Result: 85

Request: Fill blank: measured BRM Max % Inhibition of the molecule C[C@@]1(C#N)COCc2ccc(C(=O)NCc3cc4nc(-c5cccc6c5ccn6C5CC5)ccc4cn3)cc21 [Compound 173] is ____.
Result: 98

Request: Fill blank: measured BRM Max % Inhibition of the molecule COCCN1CCC(c2cccc(-c3ccc4cnc(CNC(=O)c5ccc6c(c5)[C@](C)(C#N)COC6)cc4n3)n2)CC1 [Compound 128] is ____.
Result: 82

Request: Fill blank: measured BRM Max % Inhibition of the molecule C[C@@]1(C#N)COCc2ccc(C(=O)NCc3cc4cc(-c5ccnc(N6CCC6)c5F)cnc4cn3)cc21 [Compound 294] is ____.
Result: 100

Request: Fill blank: measured BRM Max % Inhibition of the molecule CN(C)c1cccc(-c2ccc3cnc(CNC(=O)c4cnc5c(c4)[C@@](F)(C(F)F)COC5)cc3n2)n1 [Compound 227] is ____.
Result: 99

----------
biological target: BRG-1 (Homo sapiens, UniProt P51532); assay: ATPase catalytic activity assay (ADP-Glo), BRG-1; details: 1 h, read-out: BRG1 Max % Inhibition, ADP-Glo, 30 nM BRG-1, 400 μM ATP
Sequence (P51532 whole entry): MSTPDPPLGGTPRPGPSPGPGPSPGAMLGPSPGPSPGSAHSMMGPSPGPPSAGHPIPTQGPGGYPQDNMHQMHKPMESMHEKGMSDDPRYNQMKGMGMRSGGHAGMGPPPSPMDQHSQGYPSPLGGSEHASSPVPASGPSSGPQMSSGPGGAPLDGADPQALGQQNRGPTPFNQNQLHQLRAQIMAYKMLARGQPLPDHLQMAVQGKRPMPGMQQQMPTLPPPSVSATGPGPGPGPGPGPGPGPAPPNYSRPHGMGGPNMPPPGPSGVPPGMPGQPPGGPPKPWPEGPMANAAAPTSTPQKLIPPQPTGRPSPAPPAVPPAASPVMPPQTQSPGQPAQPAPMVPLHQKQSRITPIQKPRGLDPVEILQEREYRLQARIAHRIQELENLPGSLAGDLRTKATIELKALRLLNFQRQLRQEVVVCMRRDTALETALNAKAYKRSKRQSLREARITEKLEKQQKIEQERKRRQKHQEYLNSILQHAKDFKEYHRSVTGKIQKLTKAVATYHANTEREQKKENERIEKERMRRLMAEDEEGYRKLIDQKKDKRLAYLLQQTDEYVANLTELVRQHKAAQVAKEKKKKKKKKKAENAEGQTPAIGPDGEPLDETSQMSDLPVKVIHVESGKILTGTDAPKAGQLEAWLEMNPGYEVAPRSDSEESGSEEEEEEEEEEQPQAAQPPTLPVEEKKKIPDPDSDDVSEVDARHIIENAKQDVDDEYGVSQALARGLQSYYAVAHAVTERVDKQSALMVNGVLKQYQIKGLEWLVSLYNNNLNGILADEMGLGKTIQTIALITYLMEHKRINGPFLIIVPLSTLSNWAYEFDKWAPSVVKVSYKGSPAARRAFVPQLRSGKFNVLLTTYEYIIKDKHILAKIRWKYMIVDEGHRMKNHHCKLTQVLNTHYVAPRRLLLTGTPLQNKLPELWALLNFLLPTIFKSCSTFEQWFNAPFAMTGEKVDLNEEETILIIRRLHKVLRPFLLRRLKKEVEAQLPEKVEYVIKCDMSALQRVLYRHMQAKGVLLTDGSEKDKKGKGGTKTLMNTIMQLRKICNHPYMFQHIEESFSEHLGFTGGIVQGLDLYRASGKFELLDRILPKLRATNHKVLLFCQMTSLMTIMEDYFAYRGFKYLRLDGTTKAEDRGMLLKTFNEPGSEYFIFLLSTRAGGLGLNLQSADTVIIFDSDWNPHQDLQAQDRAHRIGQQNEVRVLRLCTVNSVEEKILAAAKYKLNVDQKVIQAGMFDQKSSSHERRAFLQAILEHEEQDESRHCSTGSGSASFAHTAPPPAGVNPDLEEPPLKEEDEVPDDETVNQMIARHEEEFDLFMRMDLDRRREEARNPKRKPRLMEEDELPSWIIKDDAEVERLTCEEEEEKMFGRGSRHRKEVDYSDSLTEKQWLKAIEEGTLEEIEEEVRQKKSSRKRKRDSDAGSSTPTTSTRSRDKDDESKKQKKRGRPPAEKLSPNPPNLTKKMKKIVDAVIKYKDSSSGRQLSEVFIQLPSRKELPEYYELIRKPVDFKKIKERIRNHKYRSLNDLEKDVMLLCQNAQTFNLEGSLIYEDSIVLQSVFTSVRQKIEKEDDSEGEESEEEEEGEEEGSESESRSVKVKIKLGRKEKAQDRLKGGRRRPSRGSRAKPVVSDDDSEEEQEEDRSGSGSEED
Quick rule for you: Emax under 60% gets t, anything else gets f.

Answered cases to consult:
compound | discreteLabel
C[C@@]1(C#N)COCc2ccc(C(=O)NCc3cc4nc(-c5ccnc(C6(F)CC6)n5)ccc4cn3)cc21 | f
C[C@@]1(C#N)COCc2ccc(C(=O)NCc3cc4cc(N5CCn6ncc(C(F)F)c6C5)ccc4nn3)cc21 | t
C[C@@]1(C#N)COCc2ccc(C(=O)NCc3cc4nc(-c5cccnc5)ccc4cn3)cc21 | t
C[C@@]1(F)COCc2ncc(C(=O)NCc3cc4nc(-c5cncc(N6CCC6)n5)ccc4cn3)cc21 | f
C[C@@]1(C#N)COCc2ccc(C(=O)NCc3cc4nc(C5CC5)ccc4cn3)cc21 | t

Request: Dear colleague, could you confirm whether Emax of `Cc1cc(-c2ccc3cnc(CNC(=O)c4ccc5c(c4)[C@](C)(C#N)COC5)cc3n2)on1` falls below 60%? Thanks.
Result: t

Request: Dear colleague, could you confirm whether Emax of C[C@@]1(C#N)COCc2ccc(C(=O)NCc3cc(N4CCC(c5ccccc5)C4)ccn3)cc21 (stereo partly shown) falls below 60%? Thanks.
Result: f

----------
biological target: BRM (Homo sapiens, UniProt P51531); test: ATPase catalytic activity assay (ADP-Glo), BRM; conditions: 30 nM BRM, 400 μM ATP
metricName: BRM Max % Inhibition (%)
Value expressed in %; do not type the unit.

compound | metricName | unitOfMeasurement | measured
C[C@@]1(F)COCc2ccc(C(=O)NCc3cc4cc(-c5cccc(N6CCC6)n5)cnc4cn3)cc21 [Compound 347] | BRM Max % Inhibition | % | 100
COCCNC(=O)c1ccc(-c2ccc3cnc(CNC(=O)c4ccc5c(c4)[C@](C)(C#N)COC5)cc3n2)cc1 [Compound 323] | BRM Max % Inhibition | % | 108
C[C@@]1(C#N)COCc2ccc(C(=O)NCc3cc4nc(-c5cccc(N6CCC6=O)n5)ccc4cn3)cc21 [Compound 392] | BRM Max % Inhibition | % | 100
C[C@@]1(C#N)COCc2ccc(C(=O)NCc3cc4nc(-c5ccnc(N6CC7CC(C6)O7)n5)ccc4cn3)cc21 [Compound 284] | BRM Max % Inhibition | % | 99

Request: Fill blank: measured BRM Max % Inhibition of the compound C[C@@]1(F)COCc2ccc(C(=O)NCc3cc4nc(-c5cncc(N6CCC6)n5)ccc4nn3)cc21 [Compound 276] is ____.
Result: 98

Request: Fill blank: measured BRM Max % Inhibition of the compound COc1cc(C)nn1-c1ccc2cnc(CNC(=O)c3ccc4c(c3)[C@](C)(C#N)COC4)cc2n1 [Compound 195] is ____.
Result: 84

Request: Fill blank: measured BRM Max % Inhibition of the compound C[C@@]1(F)COCc2ccc(C(=O)NCc3cc4nc(-c5cccc(C6(CO)CC6)n5)ccc4cn3)cc21 [Compound 168] is ____.
Result: 99

----------
target: BRG-1 (Homo sapiens); test: ATPase catalytic activity assay (ADP-Glo), BRG-1
metricName: IC50

compound | IC50
C[C@@]1(C#N)COCc2ccc(C(=O)NCc3cc4nc(-c5ccc(N6CCC6)nc5)ccc4cn3)cc21 | 0.5 to 1 µM
COCCn1c(C)cc2c(-c3ccc4cnc(CNC(=O)c5ccc6c(c5)[C@](C)(C#N)COC6)cc4n3)cccc21 | < 0.1 µM
O=C(NCc1cc2nc(-c3ccccc3)ccc2cn1)c1cccc(C2(C(F)F)COC2)c1 | > 1 µM
CNC(=O)c1cc(-c2ccc3cnc(CNC(=O)c4ccc5c(c4)[C@](C)(C#N)COC5)cc3n2)ccc1F | 0.1 to 0.5 µM
COC(=O)N1CCCC(C#Cc2ccnc(CNC(=O)c3ccc4c(c3)[C@](C)(C#N)COC4)c2)C1 (stereo partly shown) | > 1 µM

Request: Fill blank: measured IC50 of the compound `COC(=O)c1cccc(-c2ccc3cnc(CNC(=O)c4ccc5c(c4)[C@](C)(C#N)COC5)cc3n2)c1` is ____.
Result: 0.1 to 0.5 µM

Request: Fill blank: measured IC50 of the compound `COc1cncc(-c2nc3cc(CNC(=O)c4ccc5c(c4)[C@](C)(C#N)COC5)ncc3s2)n1` is ____.
Result: 0.5 to 1 µM

----------
target: BRG-1 (Homo sapiens, UniProt P51532); test: ATPase catalytic activity assay (ADP-Glo), BRG-1; details: 1 h, read-out: BRG1 Max % Inhibition, ADP-Glo, 30 nM BRG-1, 400 μM ATP
Quick rule for you: Emax under 70% gets t, anything else gets f.

Answered cases to consult:
compound | discreteLabel
C[C@@]1(C#N)COCc2ccc(C(=O)NCc3cc4nc(-c5cncc(N6CCCC6)n5)ccc4cn3)cc21 [Compound 415] | f
CN1CCC(C(=O)N2CCN(c3cccc(-c4ccc5cnc(CNC(=O)c6ccc7c(c6)[C@](C)(C#N)COC7)cc5n4)n3)CC2)CC1 [Compound 287] | f
C[C@@]1(C#N)COCc2ccc(C(=O)NCc3cc4nc(-c5cn(C6COC6)nc5C(F)F)ccc4cn3)cc21 [Compound 145] | t

Request: Dear colleague, could you confirm whether Emax of COc1ncccc1-c1ccc2cnc(CNC(=O)c3ccc4c(c3)[C@](C)(C#N)COC4)cc2n1 [Compound 488] falls below 70%? Thanks.
Result: f

Request: Dear colleague, could you confirm whether Emax of C[C@@]1(C#N)CCNc2ccc(C(=O)NCc3cc4nc(-c5ccccc5)ccc4cn3)cc21 [Compound 116] falls below 70%? Thanks.
Result: t

Request: Dear colleague, could you confirm whether Emax of C[C@@]1(F)COCc2ccc(C(=O)NCc3cc4nc(-c5ccccc5)sc4cn3)cc21 [Compound 300] falls below 70%? Thanks.
Result: t

Request: Dear colleague, could you confirm whether Emax of C[C@@]1(C#N)COCc2ccc(C(=O)NCc3cc4nc(-c5cccc(N6CCCC6=O)n5)ccc4cn3)cc21 [Compound 378] falls below 70%? Thanks.
Result: f

Request: Dear colleague, could you confirm whether Emax of C[C@@]1(C#N)COCc2ccc(C(=O)NCc3cnc4ccc(-c5ccccc5)nc4c3)cc21 [Compound 106] falls below 70%? Thanks.
Result: t

Request: Dear colleague, could you confirm whether Emax of Cn1cc2c(-c3ccc4cnc(CNC(=O)c5ccc6c(c5)[C@](C)(C#N)COC6)cc4n3)cccc2n1 [Compound 151] falls below 70%? Thanks.
Result: t

Request: Dear colleague, could you confirm whether Emax of Cc1cc2c(-c3ccc4cnc(CNC(=O)c5ccc6c(c5)[C@](C)(C#N)COC6)cc4n3)cccc2n1C [Compound 172] falls below 70%? Thanks.
Result: f

Request: Dear colleague, could you confirm whether Emax of COCc1cc2c(-c3ccc4cnc(CNC(=O)c5ccc6c(c5)[C@](C)(C#N)COC6)cc4n3)cccc2n1C [Compound 141] falls below 70%? Thanks.
Result: f

Request: Dear colleague, could you confirm whether Emax of C[C@@]1(C#N)COCc2ccc(C(=O)NCc3cc4nc(-c5cncc(C(F)F)n5)ccc4cn3)cc21 [Compound 355] falls below 70%? Thanks.
Result: f

Request: Dear colleague, could you confirm whether Emax of C[C@@]1(C#N)COCc2ccc(C(=O)NCc3cc4c(cn3)CCN(c3ccnc(N5CCCC5)n3)C4)cc21 [Compound 331] falls below 70%? Thanks.
Result: f

Request: Dear colleague, could you confirm whether Emax of COc1cccc(-c2ccc3cnc(CNC(=O)c4ccc5c(c4)[C@](C)(C#N)COC5)cc3n2)n1 [Compound 492] falls below 70%? Thanks.
Result: f

Request: Dear colleague, could you confirm whether Emax of COc1ccc(F)cc1-c1ccc2cnc(CNC(=O)c3ccc4c(c3)[C@](C)(C#N)COC4)cc2n1 [Compound 517] falls below 70%? Thanks.
Result: f

Request: Dear colleague, could you confirm whether Emax of CN(C)c1cccc(-c2ccc3nnc(CNC(=O)c4ccc5c(c4)[C@](C)(C#N)COC5)cc3n2)n1 [Compound 223] falls below 70%? Thanks.
Result: f

Request: Dear colleague, could you confirm whether Emax of COC(=O)c1cccc(C#Cc2ccnc(CNC(=O)c3ccc4c(c3)[C@](C)(C#N)COC4)c2)c1 [Compound 3] falls below 70%? Thanks.
Result: f

Request: Dear colleague, could you confirm whether Emax of COC(=O)N1CCCC(C#Cc2ccnc(CNC(=O)c3ccc4c(c3)[C@](C)(C#N)COC4)c2)C1 (some centres unmarked) [Compound 5] falls below 70%? Thanks.
Result: t
